system: human vanilloid receptor 1 (VR1/TRPV1) (Homo sapiens)
method: FLIPR Ca2+ influx functional study on human vanilloid receptor 1
condition_parameters: CHO K1 cells transfected with human VR1; FLIPR Ca2+ influx

chemical_structure: COc1cc(CNC(=O)/C=C/c2ccc(C(C)(C)C)cc2)ccc1O
EC50: 0.147 nM

* * *

system: human vanilloid receptor 1 (VR1/TRPV1) (Homo sapiens, UniProt Q8NER1)
Construct: expressed in transfected cells; host or cells: CHO K1 cells (ECACC)
Sequence (Q8NER1 whole entry): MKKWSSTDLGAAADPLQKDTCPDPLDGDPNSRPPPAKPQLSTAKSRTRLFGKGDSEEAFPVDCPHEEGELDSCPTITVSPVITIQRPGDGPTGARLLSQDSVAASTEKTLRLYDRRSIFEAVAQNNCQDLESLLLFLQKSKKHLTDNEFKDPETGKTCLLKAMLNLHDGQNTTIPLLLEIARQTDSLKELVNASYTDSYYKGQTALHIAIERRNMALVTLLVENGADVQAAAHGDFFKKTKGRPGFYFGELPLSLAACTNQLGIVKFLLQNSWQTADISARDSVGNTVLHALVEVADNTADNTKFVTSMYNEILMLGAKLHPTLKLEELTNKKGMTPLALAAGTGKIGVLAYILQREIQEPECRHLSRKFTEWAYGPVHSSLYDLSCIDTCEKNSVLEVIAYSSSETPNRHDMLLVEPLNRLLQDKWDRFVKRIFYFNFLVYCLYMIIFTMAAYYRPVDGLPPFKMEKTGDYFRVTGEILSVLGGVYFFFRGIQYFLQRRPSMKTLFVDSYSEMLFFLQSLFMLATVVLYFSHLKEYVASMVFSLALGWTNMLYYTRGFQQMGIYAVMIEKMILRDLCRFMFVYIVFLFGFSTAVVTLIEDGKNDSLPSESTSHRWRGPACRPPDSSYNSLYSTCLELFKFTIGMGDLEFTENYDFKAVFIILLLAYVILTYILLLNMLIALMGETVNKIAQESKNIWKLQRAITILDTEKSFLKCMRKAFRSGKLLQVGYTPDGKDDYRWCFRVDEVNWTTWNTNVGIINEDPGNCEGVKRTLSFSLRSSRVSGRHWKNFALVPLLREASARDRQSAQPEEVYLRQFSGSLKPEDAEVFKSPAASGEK
method: FLIPR Ca2+ influx functional study on human vanilloid receptor 1
Assay type: cell-based
condition_parameters: test substance 10 μM; CHO K1 cells transfected with human VR1; Ca2+ signal relative to 10 μM capsaicin; read-out: VR1 (Human) (% Stimulation compared with 10 μM CP)
Protocol: 1. Functional Study on the Vanilloid Receptor 1 (VR1/TRPV1 Receptor) The agonist activity or antagonist activity of the substances to be tested on the vanilloid receptor 1 (VR1/TRPV1) of the species human and rat can be determined using the following assay. […] The FLIPR protocol consists of two additions of test substance. […] After 5 minutes' incubation, 100 nM of capsaicin are applied and the influx of Ca^2+ is likewise determined. […]

chemical_structure: COc1cc(CNC(=O)/C=C/c2ccc(C(C)(C)C)cc2)ccc1O
Emax at 10 µM: 115%
--
chemical_structure: COc1cc(CNC(=O)/C=C/c2ccc(CC(C)(C)C)cc2)ccc1O
Emax at 10 µM: 102%
--
chemical_structure: COc1cc(CNC(=O)/C=C/c2ccc(CC(C)C)cc2)ccc1O
Emax at 10 µM: 103%
--
chemical_structure: CCCCCCCCc1ccc(/C=C/C(=O)NCc2ccc(O)c(OC)c2)cc1
Emax at 10 µM: 97%
--
chemical_structure: CCCCc1ccc(/C=C/C(=O)NCc2ccc(O)c(OC)c2)cc1
Emax at 10 µM: 110%
--
chemical_structure: COc1cc(CNC(=O)/C=C/c2ccc(C)cc2)ccc1O
Emax at 10 µM: 56%
--
chemical_structure: CCCc1ccc(/C=C/C(=O)NCc2ccc(O)c(OC)c2)cc1
Emax at 10 µM: 102%
--
chemical_structure: CCc1ccc(/C=C/C(=O)NCc2ccc(O)c(OC)c2)cc1
Emax at 10 µM: 71%
--
chemical_structure: COc1cc(CNC(=O)/C=C/c2ccc(C(C)C)cc2)ccc1O
Emax at 10 µM: 71%

* * *

system: rat vanilloid receptor 1 (VR1/TRPV1) (Rattus norvegicus, UniProt O35433)
Construct: expressed in transfected cells; host or cells: CHO K1 cells (ECACC)
Sequence (O35433 whole entry): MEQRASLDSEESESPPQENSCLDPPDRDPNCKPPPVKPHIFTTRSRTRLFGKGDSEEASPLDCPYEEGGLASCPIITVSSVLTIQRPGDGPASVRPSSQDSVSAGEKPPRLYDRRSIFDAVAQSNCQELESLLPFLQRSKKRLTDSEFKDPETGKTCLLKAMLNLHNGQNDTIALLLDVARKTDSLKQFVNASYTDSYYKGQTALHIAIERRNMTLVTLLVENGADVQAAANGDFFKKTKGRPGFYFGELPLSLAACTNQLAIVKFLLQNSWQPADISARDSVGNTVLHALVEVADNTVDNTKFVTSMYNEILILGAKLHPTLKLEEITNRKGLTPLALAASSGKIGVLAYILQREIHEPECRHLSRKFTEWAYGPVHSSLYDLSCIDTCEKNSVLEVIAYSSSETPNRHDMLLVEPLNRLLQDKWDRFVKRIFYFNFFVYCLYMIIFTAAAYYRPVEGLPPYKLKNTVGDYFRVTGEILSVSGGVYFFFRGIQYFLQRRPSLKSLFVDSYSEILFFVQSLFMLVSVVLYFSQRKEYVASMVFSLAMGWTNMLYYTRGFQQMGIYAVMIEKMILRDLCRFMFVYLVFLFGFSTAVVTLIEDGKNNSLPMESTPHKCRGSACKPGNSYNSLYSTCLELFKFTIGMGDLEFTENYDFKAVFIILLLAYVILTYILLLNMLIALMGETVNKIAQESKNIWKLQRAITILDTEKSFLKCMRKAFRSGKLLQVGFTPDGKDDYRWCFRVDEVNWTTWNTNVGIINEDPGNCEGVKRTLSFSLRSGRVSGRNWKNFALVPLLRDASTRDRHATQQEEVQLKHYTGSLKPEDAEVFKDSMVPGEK
method: FLIPR Ca2+ influx functional study on rat vanilloid receptor 1
Assay type: cell-based
condition_parameters: CHO K1 cells transfected with rat VR1; FLIPR Ca2+ influx
result_type: EC50

chemical_structure: COc1cc(CNC(=O)/C=C/c2ccc(C(C)(C)C)cc2)ccc1O
system: rat vanilloid receptor 1 (VR1/TRPV1) (Rattus norvegicus, UniProt O35433)
measured_result: 0.129 nM

* * *

Overview of recorded Emax at 10 µM for various compounds
system: rat vanilloid receptor 1 (VR1/TRPV1) (Rattus norvegicus, UniProt O35433)
Construct: expressed in transfected cells; host or cells: CHO K1 cells (ECACC)
method: FLIPR Ca2+ influx functional study on rat vanilloid receptor 1
Format: cell-based
condition_parameters: test substance 10 μM; CHO K1 cells transfected with rat VR1; Ca2+ signal relative to 10 μM capsaicin; read-out: VR1 (Rat) (% Stimulation compared with 10 μM CP)

compound: CCCCc1ccc(/C=C/C(=O)NCc2ccc(O)c(OC)c2)cc1 [Example 8]
endpoint_unit: %
Emax at 10 µM: 132
//
compound: COc1cc(CNC(=O)/C=C/c2ccc(CC(C)C)cc2)ccc1O [Example 6]
endpoint_unit: %
Emax at 10 µM: 141
//
compound: COc1cc(CNC(=O)/C=C/c2ccc(C(C)C)cc2)ccc1O [Example 3]
endpoint_unit: %
Emax at 10 µM: 97
//
compound: COc1cc(CNC(=O)/C=C/c2ccc(C(C)(C)C)cc2)ccc1O [Example 4]
endpoint_unit: %
Emax at 10 µM: 106
//
compound: COc1cc(CNC(=O)/C=C/c2ccc(CC(C)(C)C)cc2)ccc1O [Example 7]
endpoint_unit: %
Emax at 10 µM: 142
